Study system: human MC4R (Homo sapiens)
Construct: host or cells: HEK-293 cells stably expressing the GScAMP22F split-luciferase cAMP sensor and hMC4R, G418 selection
Sequence (P32245 whole entry): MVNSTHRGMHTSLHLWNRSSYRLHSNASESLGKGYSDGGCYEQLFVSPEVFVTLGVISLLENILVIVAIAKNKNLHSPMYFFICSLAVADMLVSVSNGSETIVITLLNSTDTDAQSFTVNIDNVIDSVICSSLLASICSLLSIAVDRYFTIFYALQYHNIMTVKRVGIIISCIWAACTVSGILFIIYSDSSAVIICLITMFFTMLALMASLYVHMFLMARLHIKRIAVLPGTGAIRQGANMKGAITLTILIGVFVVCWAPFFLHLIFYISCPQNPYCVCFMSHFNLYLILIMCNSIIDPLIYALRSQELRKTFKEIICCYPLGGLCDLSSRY
Experimental protocol: split-luciferase cAMP sensor assay, agonist mode (measurement window 1), hMC4R
Assay type: cell-based
Condition parameters: % maximal activation, agonist mode; read-out: MC4R cAMP % max activation
Positions of bridges follow the written chain, without caps; N, C: chain ends. Non-standard residues stand in square brackets, D forms with d. Residues, ends and D or L forms follow the SMILES beside them. 2Pal = N[C@@H](Cc1ccccn1)C(=O)O; 3Pal = N[C@@H](Cc1cccnc1)C(=O)O; Cit = NC(=O)NCCC[C@H](N)C(=O)O; Nle = CCCC[C@H](N)C(=O)O; Aib = CC(C)(N)C(=O)O
Reported endpoint: Emax (%)
Please give a number only; it is taken to be in %.

Emax in this record for C[C@H]1NC(=O)CSC[C@@H](C(N)=O)NC(=O)[C@H](Cc2ccccc2)NC(=O)[C@H](CCCNC(=N)N)NC(=O)[C@@H](Cc2ccccc2)NC(=O)[C@H](CCCNC(=N)N)NC1=O [CTX-1657] ({CH2CO}-[dA]R[dF]RFC-NH2; thioether N-6) : 78

Emax in this record for CC(=O)N[C@H]1CSSC[C@@H](C(N)=O)NC(=O)[C@H](Cc2c[nH]c3ccccc23)NC(=O)[C@H](CCCNC(=N)N)NC(=O)[C@@H](Cc2ccccc2)NC(=O)[C@H](CCCNC(N)=O)NC(=O)CNC1=O [CTX-1630, cyclo(Cys-Gly-Cit-D-Phe-Arg-Trp-Cys)] (Ac-CG[Cit][dF]RWC-NH2; disulfide 1-7 (inferred)) : 102

Emax in this record for CC(=O)N[C@@H](CCCNC(=N)N)C(=O)N[C@H]1CSSC[C@@H](C(N)=O)NC(=O)[C@H](Cc2c[nH]c3ccccc23)NC(=O)[C@H](CCCNC(=N)N)NC(=O)[C@@H](Cc2ccccc2)NC(=O)[C@H](CCCNC(=N)N)NC(=O)C(C)(C)NC1=O [CTX-1292, Arg-cyclo(Cys-Aib-Arg-D-Phe-Arg-Trp-Cys)] (Ac-RC[Aib]R[dF]RWC-NH2; disulfide 2-8 (inferred)) : 90

Emax in this record for CCCC[C@H](NC(=O)[C@H](CCCNC(=N)N)NC(C)=O)C(=O)N[C@H]1CSSC[C@@H](C(N)=O)NC(=O)[C@H](Cc2c[nH]c3ccccc23)NC(=O)[C@H](CCCNC(=N)N)NC(=O)[C@@H](Cc2ccccc2)NC(=O)[C@H](Cc2ccccn2)NC1=O [CTX-1619] (Ac-R[Nle]C[2Pal][dF]RWC-NH2; disulfide 3-8 (inferred)) : 99

Emax in this record for CCCC[C@H](NC(=O)[C@H](CCCNC(=N)N)NC(C)=O)C(=O)N[C@H]1CSSC[C@@H](C(N)=O)NC(=O)[C@H](Cc2c[nH]c3ccccc23)NC(=O)[C@H](CCCNC(=N)N)NC(=O)[C@@H](Cc2ccccc2)NC(=O)[C@H](CCCNC(=N)N)NC1=O [CTX-1228, Arg-Nle-cyclo(Cys-Arg-D-Phe-Arg-Trp-Cys)] (Ac-R[Nle]CR[dF]RWC-NH2; disulfide 3-8 (inferred)) : 102

Emax in this record for C[C@H]1NC(=O)CSC[C@@H](C(N)=O)NC(=O)[C@H](Cc2c[nH]c3ccccc23)NC(=O)[C@H](CCCNC(=N)N)NC(=O)[C@@H](Cc2ccccc2)NC(=O)[C@H](CCCNC(N)=O)NC1=O [CTX-1643] ({CH2CO}-[dA][Cit][dF]RWC-NH2; thioether N-6) : 111

Emax in this record for C[C@H]1NC(=O)CSC[C@@H](C(N)=O)NC(=O)[C@H](Cc2c[nH]c3ccccc23)NC(=O)[C@H](CCCNC(=N)N)NC(=O)[C@@H](Cc2ccccc2)NC(=O)[C@H](CCCNC(=N)N)NC1=O [CTX-1642] ({CH2CO}-[dA]R[dF]RWC-NH2; thioether N-6) : 107

Emax in this record for CC(=O)N[C@@H](CCCNC(=N)N)C(=O)N[C@H]1CSSC[C@@H](C(N)=O)NC(=O)[C@H](Cc2c[nH]c3ccccc23)NC(=O)[C@H](CCCNC(=N)N)NC(=O)[C@@H](Cc2ccccc2)NC(=O)[C@H](CCCNC(N)=O)NC(=O)[C@H](C)NC1=O [CTX-1287, Arg-cyclo(Cys-Ala-Cit-D-Phe-Arg-Trp-Cys)] (Ac-RCA[Cit][dF]RWC-NH2; disulfide 2-8 (inferred)) : 94

Emax in this record for CC(=O)N[C@@H](CCCNC(=N)N)C(=O)N[C@H]1CSSC[C@@H](C(N)=O)NC(=O)[C@@H](Cc2c[nH]c3ccccc23)NC(=O)[C@H](CCCNC(=N)N)NC(=O)[C@@H](Cc2ccccc2)NC(=O)[C@H](CCCNC(N)=O)NC(=O)C(C)(C)NC1=O [CTX-1290] (Ac-RC[Aib][Cit][dF]R[dW]C-NH2; disulfide 2-8) : 88

Emax in this record for CC(=O)N[C@@H](CCCNC(=N)N)C(=O)N[C@H]1CSSC[C@@H](C(N)=O)NC(=O)[C@H](Cc2ccccc2)NC(=O)[C@H](CCCNC(=N)N)NC(=O)[C@@H](Cc2ccccc2)NC(=O)[C@H](Cc2cccnc2)NC(=O)C(C)(C)NC1=O [CTX-1605] (Ac-RC[Aib][3Pal][dF]RFC-NH2; disulfide 2-8 (inferred)) : 85
